test system: THP-1 cells; assay: TNFα generation assay; format: cell-based, human; details: Homo sapiens, THP-1, THP-1 cells; Table 22; read-out: IC50 in TNFα generation assay
MEASURED ATTRIBUTE: IC50

Example entries and their recorded answers appear below.
NC(=O)c1cc(F)c(N[C@@H]2CCCC[C@@H]2N)nc1Nc1cnc(N2CCOCC2)c(F)c1 [Example 006-395]; 65 to 130 nM
C[C@H](N)[C@@H](C)Nc1nc(Nc2ccc3cccnc3c2)c(C(N)=O)cc1F (racemic) [Example 006-182]; 130 to 200 nM
COc1ccc(-c2cncc(Nc3nc(N[C@@H]4CCCC[C@@H]4N)c(F)cc3C(N)=O)c2)c(OC)c1 (relative stereo) [Example 004-190]; 130 to 200 nM
NC(=O)c1cc(F)c(N[C@@H]2CCCC[C@@H]2N)nc1Nc1ccc2nc(OCCN3CCOC3=O)ccc2c1 (relative stereo) [Example 004-201]; 130 to 200 nM
C[C@@H](N)[C@@H](C)Nc1nc(Nc2ccc3ncccc3c2)c(C(N)=O)cc1F [Example 006-224]; < 65 nM
NC(=O)c1cc(F)c(N[C@@H]2CCCC[C@@H]2N)nc1Nc1ccnc(-n2cccn2)c1 (relative stereo) [Example 006-130]; 65 to 130 nM
NC(=O)c1cc(F)c(N[C@@H]2CCCC[C@@H]2N)nc1Nc1ccnc2c1ccn2C1CC1 [Example 004-037]; 65 to 130 nM
CC[C@@H](Nc1nc(Nc2ccc3c(c2)c(OC)nn3C)c(C(N)=O)cc1F)[C@H](C)N [Example 006-588]; < 65 nM
NC(=O)c1cc(F)c(N[C@@H]2CCCC[C@@H]2N)nc1Nc1ccc(N2CCOCC2)nc1 [Example 006-165]; 65 to 130 nM

Please find the next compound below.
Summary: Cc1ncc(Nc2nc(N[C@H](CC(C)C)[C@H](C)N)c(F)cc2C(N)=O)cc1-n1nccn1 [Example 006-386] , THP-1 cells, IC50 = < 65 nM
